Data provenance: PubChem BioAssay

molecular target: Torsin-1A-interacting protein 1 (Homo sapiens) (UniProt Q5JTV8); test: LAP1 binders from COS7 cell lysate, primary screen, small-molecule microarray, 635/667 nm fluorescence (AID 1116); conditions: COS7-hLAP1 lysate binding, 635 nm fluorescence, higher = more signal
Sequence (Q5JTV8 whole entry, looked up): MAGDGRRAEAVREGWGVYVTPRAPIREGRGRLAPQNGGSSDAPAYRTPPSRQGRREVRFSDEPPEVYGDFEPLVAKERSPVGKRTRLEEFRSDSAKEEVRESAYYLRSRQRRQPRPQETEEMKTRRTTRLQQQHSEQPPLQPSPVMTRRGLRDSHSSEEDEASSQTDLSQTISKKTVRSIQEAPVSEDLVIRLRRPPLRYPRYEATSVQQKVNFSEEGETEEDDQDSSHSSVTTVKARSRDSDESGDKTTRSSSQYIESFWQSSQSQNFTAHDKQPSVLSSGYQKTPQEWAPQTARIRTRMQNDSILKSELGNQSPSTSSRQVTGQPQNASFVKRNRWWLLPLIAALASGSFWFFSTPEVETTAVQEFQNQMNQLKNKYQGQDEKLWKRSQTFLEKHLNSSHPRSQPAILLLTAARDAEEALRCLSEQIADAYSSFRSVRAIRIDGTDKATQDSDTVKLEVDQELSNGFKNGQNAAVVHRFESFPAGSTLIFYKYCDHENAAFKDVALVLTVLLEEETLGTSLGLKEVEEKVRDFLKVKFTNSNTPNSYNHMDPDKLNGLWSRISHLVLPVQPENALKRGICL
readout_label: composite z-score
Keep it simple and answer with nothing but the number.

**Q:** composite z-score lookup needed for COCCOC(=O)N1C(=O)[C@@]2(c3cc(C#CCCO)ccc31)[C@H](c1ccccc1OCCO)N1[C@H](c3ccccc3)[C@H](c3ccccc3)OC(=O)[C@H]1[C@@H]2C(=O)N1CCN(c2ncccn2)CC1 , thanks.
**A:** 1.16

**Q:** composite z-score lookup needed for C=CCC(OC(C)=O)[C@@H]1[C@@H](N(Cc2ccc(-c3ccccc3)cc2)C(=O)Cc2ccc(OC)cc2)c2cc(OCCCO)ccc2N1C(=O)c1ccc2ccccc2n1 (stereo not given in full) , thanks.
**A:** 0.589

**Q:** composite z-score lookup needed for [N-]=[N+]=NCc1ccccc1C[C@]1(C(=O)NCC(O)CO)N=C(c2ccc(OCCCO)cc2)O[C@H]1c1ccccc1N=[N+]=[N-] (stereo not given in full) , thanks.
**A:** 1.4

**Q:** composite z-score lookup needed for Cc1ccccc1C(O)C1C=CC2C(=O)N(C)C(=O)C2N1N1CCCCC1 (stereo not given) , thanks.
**A:** 1.65

**Q:** composite z-score lookup needed for COC(=O)[C@@]1(Cc2ccc(F)cc2)[C@H]2c3cc(C(=O)N(C)C)n(CCc4ccccn4)c3C[C@H]2CN1C(=O)c1ccccc1 , thanks.
**A:** 0.468

**Q:** composite z-score lookup needed for C=C[C@H](C)[C@@H](O)c1ccc(O)c2ccccc12 , thanks.
**A:** -0.438

**Q:** composite z-score lookup needed for COC(=O)[C@@]1(Cc2ccc(OC)cc2)[C@H]2c3cc(C(=O)N4CCCC4)n(CCc4c[nH]c5cc(F)ccc45)c3C[C@H]2CN1C(=O)c1ccccc1 , thanks.
**A:** 2.94

**Q:** composite z-score lookup needed for Cc1ccc(S[C@]2(C(=O)NC3CC3)CC(=O)N(C3CCCCC3)[C@@H]2c2ccc(CO)cc2I)cc1 , thanks.
**A:** -0.0758

**Q:** composite z-score lookup needed for CC(=CC1CCCCC1)[C@@H](NC(=O)c1ccc(C(F)(F)F)cc1)c1ccc(-c2ccccc2)cc1 , thanks.
**A:** -0.204

**Q:** composite z-score lookup needed for CCN(CC)c1ccc(N2CC=CC34O[C@@H]5/C=C\CCCOC(=O)C5[C@H]3C(=O)N(C(CO)C(C)C)[C@@H]4C2=O)cc1 (stereo not given in full) , thanks.
**A:** -0.0861

**Q:** composite z-score lookup needed for N#Cc1ccc(NN2C(C(O)C3CCCCC3)C=CC3C(=O)N(c4ccccc4)C(=O)C32)cc1 (stereo not given) , thanks.
**A:** -0.102

**Q:** composite z-score lookup needed for C=CCNC(=O)[C@@H]1[C@H]2C(=O)O[C@H](c3ccccc3)[C@H](c3ccccc3)N2[C@H](c2ccc(O)cc2)[C@@]12C(=O)N(C(=O)OCCOC)c1ccccc12 , thanks.
**A:** 1.12

**Q:** composite z-score lookup needed for CCCCCCCCCCC(O)C1C=CC2C(=O)N(Cc3ccccc3)C(=O)C2N1n1cnnc1 (stereo not given) , thanks.
**A:** 0.36

**Q:** composite z-score lookup needed for Cc1ccc(S[C@]2(C(=O)O)CC(=O)N(C3Cc4ccccc4C3)[C@@H]2c2ccc(CO)cc2I)cc1 , thanks.
**A:** 0.365

**Q:** composite z-score lookup needed for CC(=O)NCCCC[C@@H]1NC(=O)[C@@H]2C[C@H](C(=O)NCCCCN(C)C)[C@H](c3ccc(O)cc3)N2C1=O , thanks.
**A:** 0.646

###

Would you kindly list z-score for each of these compounds?
assay: P. aeruginosa biofilm formation inhibitors, primary screen, strain PAO1, LB-PBS medium, absorbance 600 nm (AID 1176); note: test concentration not given here; settings: P. aeruginosa PAO1 growth/biofilm, A600, 12 h; higher = more signal
Keep it simple and answer with nothing but the number.

**Q:** z-score lookup needed for CC(C)NC(=O)[C@@]1(Cc2ccccc2I)c2ccccc2C(=O)N(Cc2ccccc2)[C@H]1c1ccc(CO)cc1 , thanks.
**A:** 0.972

**Q:** z-score lookup needed for C=C[C@H](C)[C@@H](O)c1ccc(O)c2ccccc12 , thanks.
**A:** 1.03

**Q:** z-score lookup needed for Cc1ccc(S[C@]2(C(=O)NCCN3CCOCC3)CC(=O)N(Cc3cc(C(F)(F)F)cc(C(F)(F)F)c3)[C@@H]2c2ccc(CO)cc2I)cc1 , thanks.
**A:** -0.407

**Q:** z-score lookup needed for CC1=C2[C@@H](CCc3ccccc3)OB(O)C[C@@H]2n2c(=O)n(-c3ccccc3)c(=O)n2C1 , thanks.
**A:** -0.177

**Q:** z-score lookup needed for CC(C)=CCCC(C)=CC(O)C1C=CC2C(=O)N(c3ccccc3)C(=O)C2N1Nc1ccccc1 (stereo not given) , thanks.
**A:** 1.32

**Q:** z-score lookup needed for O=C1O[C@@H](c2ccccc2)[C@@H](c2ccccc2)N2[C@@H](c3ccc(OCCO)cc3)[C@]3(C(=O)Nc4ccc(C#CC5=CCCCC5)cc43)[C@@H](C(=O)O)[C@H]12 , thanks.
**A:** 2.07

**Q:** z-score lookup needed for CCCN1C(=O)[C@]2(COC(c3ccc(OCCCO)cc3)=N2)Cc2ccccc21 , thanks.
**A:** -0.152

**Q:** z-score lookup needed for C#CCN(C(/C=C/c1ccccc1)CO)C(C(=O)O)c1ccccc1 (stereo not given) , thanks.
**A:** -0.565

**Q:** z-score lookup needed for O=C1O[C@@H](c2ccccc2)[C@@H](c2ccccc2)N2[C@@H](c3ccc(O)cc3)[C@]3(C(=O)Nc4ccc(C#CC5=CCCCC5)cc43)[C@@H](C(=O)O)[C@H]12 , thanks.
**A:** 2.85

**Q:** z-score lookup needed for CC1CC/C=C\[C@H]2OC34C=CCN(Cc5ccccc5)C(=O)[C@H]3N(CCCCCO)C(=O)[C@@H]4C2C(=O)O1 (stereo not given in full) , thanks.
**A:** -0.565

**Q:** z-score lookup needed for O=C1O[C@@H](c2ccccc2)[C@@H](c2ccccc2)N2[C@@H](c3ccc(OCCO)cc3)[C@]3(C(=O)Nc4ccccc43)[C@@H](C(=O)Nc3nc4ccccc4s3)[C@H]12 , thanks.
**A:** 3.18

**Q:** z-score lookup needed for CCCC[C@H]1OB(O)C[C@H]2C1=C(C)C[C@H]1C(=O)N(Cc3ccccc3)C(=O)[C@H]12 , thanks.
**A:** 0.0481

**Q:** z-score lookup needed for CCCCCCc1nc(CCCc2cc3c(c(CCCCCC)n2)[Si](C(C)C)(C(C)C)OC3)cc2c1[Si](C(C)C)(C(C)C)OC2 , thanks.
**A:** 0.374

**Q:** z-score lookup needed for CO[C@H]1O[C@H](CO)[C@@H](OC(=O)Nc2ccc3c(c2)OCO3)[C@H](OC(=O)Nc2ccccc2)[C@H]1OC(=O)Nc1ccccc1 , thanks.
**A:** -0.329

**Q:** z-score lookup needed for Cc1cc(C)c(C(O)C2C=CC3C(=O)N(C)C(=O)C3N2Nc2ccccc2)c(C)c1 (stereo not given) , thanks.
**A:** 0.944

###

test: basal S. cerevisiae growth modulation, no modifier, primary screen, OD600, strain BY4716, 24 h, basal condition (AID 1173); settings: OD600, 24 h, higher = more signal, called active from +8 up or from −8 down
readout_label: z-score
Keep it simple and answer with nothing but the number.

**Q:** z-score lookup needed for COCCOC(=O)N1C(=O)[C@@]2(c3cc(C#CCNC(N)=O)ccc31)[C@H](C(=O)N1CCc3cc(OC)c(OC)cc3C1)[C@H]1C(=O)O[C@H](c3ccccc3)[C@H](c3ccccc3)N1[C@@H]2c1ccc(OCCO)cc1 , thanks.
**A:** 2.28

**Q:** z-score lookup needed for Cc1ccc(S[C@]2(C(=O)O)CC(=O)N(C3Cc4ccccc4C3)[C@@H]2c2ccc(CO)cc2I)cc1 , thanks.
**A:** -1.99

**Q:** z-score lookup needed for NCCCCCNC(=O)[C@H]1C[C@H]2C(=O)NCC(=O)N2[C@H]1c1cccc(OCCO)c1 , thanks.
**A:** -0.0725

**Q:** z-score lookup needed for COc1cc2c(cc1OC)CN(C(=O)[C@@H]1[C@H]3C(=O)O[C@H](c4ccccc4)[C@H](c4ccccc4)N3[C@H](c3ccccc3OCCO)[C@@]13C(=O)Nc1ccc(C#CCNC(N)=O)cc13)CC2 , thanks.
**A:** 0.74

**Q:** z-score lookup needed for COC(=O)[C@@]1(Cc2ccc(F)cc2)[C@H]2c3cc(C(=O)N4CCCC4)n(Cc4cccc5ccccc45)c3C[C@H]2CN1C(=O)c1ccccc1 , thanks.
**A:** 1.28

**Q:** z-score lookup needed for CN1CCC(CCCO)=CC1c1ccc(CN2CCCC2)cc1 (stereo not given) , thanks.
**A:** -1.33

**Q:** z-score lookup needed for COC(=O)[C@@]1(Cc2ccc(OC)cc2)[C@H]2c3cc(C(=O)N4CCCC4)n(Cc4cc(F)cc5c4OCOC5)c3C[C@H]2CN1C(=O)c1ccccc1 , thanks.
**A:** 0.433

**Q:** z-score lookup needed for C=CCOC(=O)[C@@H]1[C@H]2C(=O)O[C@H](c3ccccc3)[C@H](c3ccccc3)N2[C@H](c2ccc(OCCOC(=O)[C@@H]3C[C@@H]4C(=O)N[C@@H](Cc5ccccc5)C(=O)N4[C@@H]3c3cccc(OCCO)c3)cc2)[C@@]12C(=O)Nc1ccc(I)cc12 , thanks.
**A:** 1.94

**Q:** z-score lookup needed for C=C(COC)/C(=C/C[C@H](OC(=O)c1ccncc1)c1cccc(OCCO)c1)c1cc(C(=O)OC)ccc1OC , thanks.
**A:** -0.0964

**Q:** z-score lookup needed for CCOC(=O)[C@H]1C/C=C/C[C@H](C(=O)OCC)C(=O)O[C@H]2[C@@H](OC)O[C@H](CO)[C@@H](OC(=O)Nc3ccc4c(c3)OCO4)[C@@H]2OC1=O , thanks.
**A:** 0.273

**Q:** z-score lookup needed for COc1cccc(C(=O)O[C@H]2CC[C@]3(C)C4=C(CCC3C2(C)C)[C@]2(C)CC[C@H]([C@H](C)CCCC(C)C)[C@@]2(C)CC4)c1 (stereo not given in full) , thanks.
**A:** -0.488

**Q:** z-score lookup needed for O=C1O[C@H](c2ccccc2)[C@H](c2ccccc2)N2[C@H]1[C@@H](C(=O)Nc1nc3ccccc3s1)[C@]1(C(=O)Nc3ccccc31)[C@H]2c1ccc(O)cc1 , thanks.
**A:** -0.373

**Q:** z-score lookup needed for O=C1O[C@@H](c2ccccc2)[C@@H](c2ccccc2)N2[C@@H](c3ccc(OCCO)cc3)[C@]3(C(=O)Nc4ccc(C#CC5=CCCCC5)cc43)[C@@H](C(=O)O)[C@H]12 , thanks.
**A:** -0.734

**Q:** z-score lookup needed for CC(=O)NCCCC[C@@H]1NC(=O)[C@@H]2C[C@H](C(=O)NCCCCCCNC(=O)CS)[C@H](c3ccc(O)cc3)N2C1=O , thanks.
**A:** -0.688

**Q:** z-score lookup needed for CCOC(=O)C1=CC[C@@H](c2ccccc2Cl)N(S(=O)(=O)c2ccc(C)cc2)C1 , thanks.
**A:** -1.65
